The following compounds are listed with their measured logP values.

query: Give the reported value of logP for this record: CCOc1ccccc1S(I)=C(N(C)C)N(C)C (configuration not stated)
result: -0.06

query: Give the reported value of logP for this record: O=C(NP(=O)(N1CC1)N1CC1)c1ccc(Br)cc1
result: 1.63

query: Give the reported value of logP for this record: c1ccc(Nc2ccc3ccccc3c2)cc1
result: 4.38

query: Give the reported value of logP for this record: c1cnc2[nH]ccc2c1
result: 1.82

query: Give the reported value of logP for this record: O=[N+]([O-])c1ccccc1SSc1ccccc1[N+](=O)[O-]
result: 3.37

query: Give the reported value of logP for this record: C[C@@H]1C[C@H]2C3C[C@H](F)C4=CC(=O)C=CC4(C)[C@@]3(F)[C@@H](O)CC2(C)[C@@]1(O)C(=O)COC(=O)C(C)(C)C (some centres not stated)
result: 3.86

query: Give the reported value of logP for this record: CCC1OC(=O)C(C)C(OC2CC(C)(OC)C(O)C(C)O2)C(C)C(OC2OC(C)CC(N(C)C)C2O)C(C)(O)CC(C)C(=O)C(C)C(O)C1C (configuration not stated)
result: 3.12

query: Give the reported value of logP for this record: COc1cc(SC)c(OC)cc1CCN
result: 1.81

query: Give the reported value of logP for this record: Cc1cc(C)ncn1
result: 0.62

query: Give the reported value of logP for this record: COC(=O)Nc1cccc(Cl)c1
result: 2.58

query: Give the reported value of logP for this record: CC(C)CCn1cnc([N+](=O)[O-])n1
result: 1.34

query: Give the reported value of logP for this record: Cc1cc(-c2ccc(N)c(C)c2)ccc1N
result: 2.34

###

The following compounds are listed with their measured logP values.
I only need the number, thanks.

A selection of reference data follows.
compound | logP
Nc1ccc(CCO)cc1 | 0.1
Clc1cccc2cccnc12 | 2.44
COC(=O)c1cc(Cl)ccc1N | 3.3
c1ccc(-c2ccc3ccccc3n2)cc1 | 3.9

query: Give the reported value of logP for this record: CCC[N+](=O)[O-]
result: 0.87

query: Give the reported value of logP for this record: Oc1ccc(Cn2cc[nH]c2=S)cc1F
result: 1.12

query: Give the reported value of logP for this record: CC(C)(C)C(=O)C(Oc1ccc(Cl)cc1)n1cncn1 (stereo not drawn)
result: 2.77

query: Give the reported value of logP for this record: C1OC1CN1CCN(CC2CO2)CC1 (stereo not drawn)
result: -0.84

###

The following compounds are listed with their measured logP values.
I only need the number, thanks.

A selection of reference data follows.
compound | quantity-name | value
CCN(CC)CCNC(=O)c1cc(I)c(N)cc1OC | logP | 3.09
c1ccc2c(c1)ccc1ccccc12 | logP | 4.46
COc1ccc(C(C)=O)c(OC)c1OC | logP | 1.63
CCCCOCC | logP | 2.03
ClCC#CCCl | logP | 2.01
O=C(O)c1cccc(F)c1 | logP | 2.15
CCC(=O)c1ccncc1 | logP | 0.77
CCOC(=O)c1ccccn1 | logP | 0.87
c1ccc2cc3ccccc3cc2c1 | logP | 4.45
COc1ccccc1C(=O)c1ccncc1 | logP | 1.86

query: Give the reported value of logP for this record: O=S(c1ccccc1)c1ccccc1
result: 2.06

query: Give the reported value of logP for this record: COCCOCC1COC(c2ccc(Cl)cc2Cl)(n2cncn2)O1 (stereo unspecified)
result: 2.03

query: Give the reported value of logP for this record: CCCCC1CCCc2ncc(C(=O)OC)c(=O)n21 (stereo unspecified)
result: 1.77

query: Give the reported value of logP for this record: CCOC(=O)CC(=O)c1ccccc1
result: 1.87

query: Give the reported value of logP for this record: CC1(c2ccccc2)NC(=O)NC1=O (stereo unspecified)
result: 1.02

query: Give the reported value of logP for this record: c1cncc(CCN2CCCC2)c1
result: 1.34
